- SYSTEM NAME: human S1P1 receptors (Homo sapiens (Human))
- Sequence (P21453 whole entry): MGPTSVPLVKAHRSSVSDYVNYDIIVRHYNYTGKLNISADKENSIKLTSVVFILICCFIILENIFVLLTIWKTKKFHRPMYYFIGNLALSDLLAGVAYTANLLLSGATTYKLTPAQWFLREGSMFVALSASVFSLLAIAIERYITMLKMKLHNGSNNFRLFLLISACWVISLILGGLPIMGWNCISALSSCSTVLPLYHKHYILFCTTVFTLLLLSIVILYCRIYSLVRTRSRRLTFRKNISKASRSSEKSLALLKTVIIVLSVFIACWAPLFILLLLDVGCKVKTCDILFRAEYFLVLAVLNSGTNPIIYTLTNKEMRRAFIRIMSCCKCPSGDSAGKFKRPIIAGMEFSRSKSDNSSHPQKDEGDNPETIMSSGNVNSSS
- TEST DESCRIPTION: Human S1P1 Receptor Calcium FLIPR Antagonist Assay (HeLa Gα16 S1P1)
- CONDITION INFO: relative antagonism vs probing agonist GNF-AC-1 at EC80, HeLa-S1P1/Gα16 cells
MEASURED QUANTITY: IC50 (nM)

As a guide, the following entries are already answered.
Cc1cc([C@H](Nc2ccc(Cl)c(CN3CC[C@@H](C(=O)O)C3)c2)C(F)(F)F)ccc1Cl [Example 29] :: 0.4
Cc1ccc(N[C@H](C)c2cc(C)c(Cl)c(C)c2)cc1CN1CC[C@@H](C(=O)O)C1 [Example 44] :: 6.7
CC[C@@H](Nc1ccc(Cl)c(CN2CC[C@@H](C(=O)O)C2)c1)c1cc(C)c(Cl)c(C)c1 [Example 43] :: 0.8
CC[C@@H](Nc1cc(CN2CCC(C)(C(=O)O)C2)c(Cl)cn1)c1ccc(Cl)c(C)c1 (single isomer, unassigned) [Example 87] :: 0.7
CC[C@@H](Nc1cc(CN2CC[C@@H](C(=O)O)C2)c(C)cn1)c1ccc(Cl)c(C)c1 [Example 60] :: 2.1

I. Cc1cc([C@H](Nc2ccc(Cl)c(CNCCC(=O)O)c2)C(F)(F)F)ccc1Cl [Example 52]
II. CCc1ccc(N[C@H](CC)c2ccc(Cl)c(C)c2)cc1CN1CC(C(=O)O)C1 [Example 37]
III. CCC(Nc1ccc(C)c(C(C)N2CC(C(=O)O)C2)c1)c1ccc(Cl)c(C)c1 (stereo not shown) [Example 10]
IV. CC[C@@H](Nc1cc(CN2CC[C@@H](C(=O)O)C2)ccc1F)c1ccc(Cl)c(C)c1 [Example 27]
Query string: // sort entries: IC50, high to low Form entry: ranked labels (order as requested).
Result string: IV, II, III, I
(IV: 10.6 nM, II: 2.5 nM, III: 1.6 nM, I: 0.9 nM)

P. CC[C@@H](Nc1ccc(C)c(CNC[C@@H](C)C(=O)O)c1)c1cc(C)c(Cl)c(C)c1 [Example 49]
Q. Cc1cc([C@H](Nc2ccc(Cl)c(CN3CCC(C(=O)O)C3)c2)C(F)(F)F)ccc1Cl (stereo partly shown) [Example 72]
Query string: So which one has the bigger IC50 here, P or Q ? Reply briefly: the label of your chosen item.
Result string: P

I. Cc1cc([C@H](Nc2cc(CNCCC(=O)O)c(Cl)cn2)C(F)(F)F)ccc1Cl [Example 85]
II. Cc1cc([C@@H](C)Nc2ccc(Cl)c(CN3CC[C@@H](C(=O)O)C3)c2)cc(C)c1Cl [Example 46]
Query string: When the recorded IC50 values are compared, which is smaller: that of I or that of II ? Mark your answer with the label of the selected entry.
Result string: I

a. CC[C@@H](Nc1ccc(Cl)c(CN2CC[C@@H](C(=O)O)C2)c1)c1ccc(Cl)c(C)c1 [Example 38]
b. CC[C@@H](Nc1cccc(C(C)N2CC(C(=O)O)C2)c1)c1ccc(Cl)c(C)c1 (stereo partly shown) [Example 6]
Query string: IC50 comparison. Which is larger, a or b ? # respond with the chosen item's label
Result string: a
